target: human neurolysin (hNln), Ser38-Pro704, N-terminal 6xHis-tag, used in the activity assays (human, UniProt Q9BYT8 38-704); test: enzyme inhibition
REPORTED_METRIC: pKi
One number for each entry, as −log10 of the molar value.

// sample YGGFLRRIRPKL [dynorphin A (1–12)] , its pKi was 6.05
